Below, each entry is listed alongside its reported fluorescence intensity, +peptide (F-LPS+peptide).
# TESTED_ON: LPS-Binding Protein (LBP) (Oryctolagus cuniculus, UniProt P17454)
# Construct: isolated from acute phase rabbit serum; from tissue; host or cells: acute phase rabbit serum
# Sequence (P17454 27-482): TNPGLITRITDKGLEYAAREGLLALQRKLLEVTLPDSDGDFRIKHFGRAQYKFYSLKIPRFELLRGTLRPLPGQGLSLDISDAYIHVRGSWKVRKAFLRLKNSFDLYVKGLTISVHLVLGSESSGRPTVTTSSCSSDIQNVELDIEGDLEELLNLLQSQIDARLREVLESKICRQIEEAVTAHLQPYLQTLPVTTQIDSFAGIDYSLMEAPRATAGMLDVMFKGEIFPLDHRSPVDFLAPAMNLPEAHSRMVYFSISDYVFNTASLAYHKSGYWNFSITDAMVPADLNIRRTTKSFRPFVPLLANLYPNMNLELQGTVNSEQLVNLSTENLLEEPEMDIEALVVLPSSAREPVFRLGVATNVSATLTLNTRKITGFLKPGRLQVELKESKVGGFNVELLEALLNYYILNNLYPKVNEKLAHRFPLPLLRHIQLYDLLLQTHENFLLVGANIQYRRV
# EXPERIMENT_DESCRIPTION: Fluorescence spectroscopy assay of F-LPS binding to LBP
# Design: species or system rabbit
# RECORDED_CONDITIONS: 10 ng/ml F-LPS + 1 mM polypeptide, before LBP
Quick note: unit goes after the number.

Worked cases, answers included:
[
  {
    "SEQUENCE_ENTRY": "ATLTLNTRKIT [Peptide 7]",
    "ASSAY_VALUE": "1600 FIU"
  },
  {
    "SEQUENCE_ENTRY": "CSSDIQNVELDIEGDLEELLNLLQSQIDARLREVLESKI [Peptide 3]",
    "ASSAY_VALUE": "1300 FIU"
  },
  {
    "SEQUENCE_ENTRY": "QTHENFLLVGANIQYRRV [Peptide 8]",
    "ASSAY_VALUE": "800 FIU"
  }
]

(Q) I'd like to know its fluorescence intensity, +peptide (F-LPS+peptide). The sequence in question is PSSAREPVFRLGVAT [Peptide 6]
(A) 800 FIU

(Q) Endpoint output: fluorescence intensity, +peptide (F-LPS+peptide) of TNPGLITRITDKGL [Peptide 1] . Value?
(A) 900 FIU

(Q) Looking for the measured fluorescence intensity, +peptide (F-LPS+peptide) of LQPYLQTLPVTTQIDS [Peptide 4] , can you help?
(A) 900 FIU

(Q) Look up fluorescence intensity, +peptide (F-LPS+peptide) for this sequence: KVRKAFLRLKNSFDL [Peptide 2]
(A) 800 FIU

(Q) # get_value(readout='fluorescence intensity, +peptide (F-LPS+peptide)', item= GIDYSLMEAPRATA [Peptide 5] )
(A) 750 FIU

###

# TESTED_ON: LPS-Binding Protein (LBP) (Oryctolagus cuniculus)
# Construct: isolated from acute phase rabbit serum; from tissue; host or cells: acute phase rabbit serum
# Sequence (P17454 27-482): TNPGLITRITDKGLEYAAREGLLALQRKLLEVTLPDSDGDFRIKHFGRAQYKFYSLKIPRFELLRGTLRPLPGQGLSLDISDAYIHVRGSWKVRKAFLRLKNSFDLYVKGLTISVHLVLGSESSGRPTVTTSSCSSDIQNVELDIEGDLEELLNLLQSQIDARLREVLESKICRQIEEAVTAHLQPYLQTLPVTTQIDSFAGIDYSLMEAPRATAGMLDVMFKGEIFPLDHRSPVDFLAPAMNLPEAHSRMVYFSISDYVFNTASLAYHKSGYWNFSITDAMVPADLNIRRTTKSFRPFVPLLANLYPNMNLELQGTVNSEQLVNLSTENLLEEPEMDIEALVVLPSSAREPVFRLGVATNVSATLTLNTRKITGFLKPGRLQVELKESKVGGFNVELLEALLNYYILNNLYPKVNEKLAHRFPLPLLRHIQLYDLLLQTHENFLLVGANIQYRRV
# EXPERIMENT_DESCRIPTION: Fluorescence spectroscopy assay of F-LPS binding to LBP
# Design: species or system rabbit
# RECORDED_CONDITIONS: 10 ng/ml F-LPS in PBS/2 mM EDTA pH 7.4, before peptide addition (baseline of the run)
VALUE_KIND: fluorescence intensity, +F-LPS (F-LPS alone) (FIU)
Answer with a number only, understood to be in FIU.

Look over these answered cases.
[
  {
    "SEQUENCE_ENTRY": "CSSDIQNVELDIEGDLEELLNLLQSQIDARLREVLESKI [Peptide 3]",
    "ASSAY_VALUE": 800
  },
  {
    "SEQUENCE_ENTRY": "TNPGLITRITDKGL [Peptide 1]",
    "ASSAY_VALUE": 900
  },
  {
    "SEQUENCE_ENTRY": "PSSAREPVFRLGVAT [Peptide 6]",
    "ASSAY_VALUE": 750
  },
  {
    "SEQUENCE_ENTRY": "ATLTLNTRKIT [Peptide 7]",
    "ASSAY_VALUE": 800
  },
  {
    "SEQUENCE_ENTRY": "QTHENFLLVGANIQYRRV [Peptide 8]",
    "ASSAY_VALUE": 700
  }
]

(Q) Item LQPYLQTLPVTTQIDS [Peptide 4] has what recorded fluorescence intensity, +F-LPS (F-LPS alone)?
(A) 800
